- Tested on: DMS-273
- Assay method text: NCI tumour cell line growth inhibition, 48 h
Active and inactive are the calls of the source. Cut-off read from the data, not from the text of the source: active = GI50 up to about 1.1 µM and inactive = higher.
Labels: active, inactive

* O=C(O)c1c(-c2cccc3ccccc23)sc(-c2cccc3ccccc23)c1C(=O)O | inactive
* Cc1cccc(/N=C2\NC(=O)C(CC(=O)Nc3ccc(C)cc3C)S2)c1 (centres undefined) | inactive
* Cn1sc2ccccc2c1=S | inactive
* Cc1cc(NS(=O)(=O)c2ccc(NC(=O)c3cccn4c(=O)c5ccccc5nc34)cc2)no1 | inactive
* COc1cc2c(c(OC)c1OC)-c1ccc(SC)c(=O)cc1C(CC(=O)Oc1ccc(F)cc1)C2 (centres undefined) | active
* Nn1c(-c2ccccc2Cl)nc2ccccc2c1=O | inactive
* COc1ccc2c3c([nH]c2c1[N+](=O)[O-])C(C)N(C)CC3 (centres undefined) | inactive
* COc1cc(O)c(C(=O)C2Cc3ccccc32)c(OC)c1 (centres undefined) | inactive
* CCN(CC)C(=O)C/C(C)=N/NC(=O)c1ccncc1 | inactive
* CCc1cc(C)cc2[n+]1CC=C2C.[O-][Cl+3]([O-])([O-])[O-] | inactive
* CCN(CC)/C(=C\Cl)Nc1ccccn1.[O-][Cl+3]([O-])([O-])O | inactive
* CC1=C2C(O)C(C(C)CO)C(O)CC2(C)C(O)CC1 (centres undefined) | inactive
* CCCCCCCC(=O)OCC1OC(n2cc(F)c(=O)[nH]c2=O)C(N)C(OC(=O)CCCCCCC)C1O (centres undefined) | inactive
* CCCNC(=O)c1cc2ccccc2cc1C(=O)OC | inactive
* O=[N+]([O-])c1cccc(C2=NOC3CCCC23)c1 (centres undefined) | inactive
* CC(C)Cn1cnc2c(Sc3c([N+](=O)[O-])ncn3C)nc(N)nc21 | inactive
* Cc1cccc2c1C(=O)OC2(c1cccc2ccccc12)c1cccc2ccccc12 | inactive
* COc1c(O)c2c3c(cc(C)cc3c1C(C)C)OC2 | inactive
* CN(C)CCN1CCc2c([nH]c3ccccc23)C1c1cccnc1 (centres undefined) | inactive
* c1ccc2c(c1)OCCOCCOc1ccccc1OCCO2 | inactive
* O=C1[C@H](Cl)[C@H]2c3cc4ccccc4nc3Oc3ccccc3N12 | inactive
* Cc1cccc(C)c1NC(=O)CCCC(=O)C(C#N)c1ccccc1 (centres undefined) | inactive
* CO/C1=C\C(C)=C\C(C)C(O)C(C)C/C(C)=C/C=C/C(OC)C(C(C)C(O)C(C)C2(O)CC(O)C(C)C(C(C)C)O2)OC1=O (centres undefined) | active
* Cc1cc(O)nc(NN2C(Cl)C(=O)C2c2cccc(O)c2)n1 (centres undefined) | inactive
* COc1cc2c(cc1OC)[Se]c1cc(OC)c(OC)cc1[Se]2 | inactive
* Cc1c2ccc3ccccc3c2c[n+]2ccccc12 | inactive
* CCc1cc(CCC(=O)Nc2c(C)cccc2C)n[nH]1 | inactive
* CCN(CC)CCCC(C)Nc1c2cc(OC)cc(C)c2nc2c(C)c(Cl)ccc12 (centres undefined) | inactive
* Cc1ccc(NC(=O)C2C(=O)N(c3ccc(C)c(C)c3)C(=O)C2N=N)cc1C (centres undefined) | inactive

---

- System: MCF7
- Assay method text: NCI tumour cell line growth inhibition, 48 h
Active and inactive are the calls of the source. Rule as the data show it: active = GI50 up to about 1.1 µM and inactive = higher.
Outcome codes: active, inactive

• Cc1[nH]n(-c2ncc(C(=O)O)c(=O)[nH]2)c(=O)c1CCO = inactive
• CC1(c2ccc(Cl)s2)CC(c2ccc(Cl)s2)=C(C#N)C(=C(C#N)C#N)N1 (configuration not stated) = inactive
• CN(C)CC(CN(C)C)c1ccccn1 = inactive
• [N-]=[N+]=Nc1ccc(CNc2cc(=O)[nH]c(=O)[nH]2)cc1 = inactive
• c1ccc2c3ccn4ccc5c6ccccc6[nH]c5c4c-3nc2c1 = active
• O=C(O)CCCc1ccc2c(c1)C(C(=O)O)CC2 (configuration not stated) = inactive
• CSC(SC)=C1CC(=O)Nc2ccccc2C1=O = inactive
• Cc1cc(-c2ccc(C(=O)O)[nH]2)on1 = inactive
• CC[C@H]1CN2CCc3cc(OC)c(OC)cc3[C@@H]2C[C@@H]1C[C@H]1NCCc2cc(OC)c(OC)cc21 = active
• O=C1NC2c3c(I)sc(I)c3/C(=N\O)C2O1 (configuration not stated) = inactive
• c1ccc2c(c1)SCCC2NC1=NCCO1 (configuration not stated) = inactive
• CC1(C)[C@@H]2C[C@H]1C(Cc1cccc(C[C@H]3c4cc(-c5ccccn5)ncc4[C@H]4C[C@@H]3C4(C)C)c1)c1cc(-c3ccccn3)ncc12 (some centres not stated) = active
• CC(=O)c1c2c(cc3c1CC1(C3)Cc3cc4c(c(C(C)=O)c3C1)CCCC4)CCCC2 = inactive
• CCN(CCO)CCNc1ccc(C)c2sc3ccccc3c(=O)c12 = inactive
• CC1(C)N=C(/C(Cl)=[N+](/[O-])C(=O)c2ccc(F)cc2)C(C)(C)N1O = inactive
• O=[N+]([O-])c1cc2c(c([N+](=O)[O-])c1)NCc1ccccc1O2 = inactive
• CC(C)=CCC[C@@H](C)C1=C(O)C(=O)C(C)=C(Nc2ccccc2F)C1=O = inactive
• O=C(O)CCSC1=NCCN1 = inactive
• O=C(O)c1ccccc1/C=C1/Nc2ccccc2C1=O = inactive
• CCOC(=O)C(NC(=O)c1ccccc1)(Nc1ccc(S(=O)(=O)Nc2cc(C)nc(C)n2)cc1)C(F)(F)F (configuration not stated) = inactive
• CN1C/C(=C\c2cccs2)C2=NC(=S)NC(c3cccs3)C2C1 (configuration not stated) = inactive
• Cc1ccc([N+](=O)[O-])cc1S(=O)(=O)Nc1ccc(C2=NN(C(=O)c3ccccc3)C(c3cccs3)C2)cc1 (configuration not stated) = inactive
• Cc1ccc(-c2cc(-c3c(C)nn(C)c(=O)c3N)n[nH]2)cc1 = inactive
• NC1OC(COC(=O)c2ccccc2)C(O)C(OC(=O)c2ccccc2)C1OC(=O)c1ccccc1 (configuration not stated) = inactive
• O=C1CSC2(CC(/C=C/c3ccccc3Br)=NN2c2cccc(S(=O)(=O)O)c2)N1c1nc2ccccc2s1 (configuration not stated) = inactive
• O=C1/C(=C\c2cccc(Oc3ccccc3)c2)S(=O)(=O)C(c2ccccc2)N1c1ccc(Cl)cc1 (configuration not stated) = inactive
• Cc1c(C(=O)NNc2ccccc2)n2c(S)nnc2c2ccccc12 = inactive
• CC1=C(C(=O)N[C@@H](Cc2ccccc2)C(=O)O)N2C(=O)[C@@H](NC(=O)[C@@H](N)CC(C)C)[C@H]2SC1 = inactive
• COC1/C=C/C(C)C(C(C)C(OC)C(C)CCC(=O)C(C)C(C/C=C/N(C)C=O)OC)OC(=O)/C=C/C=C(\C)CC(OC)C(OC)C2=CC(=O)O[C@@H](C(C)C(OC)CC(OC)/C=C/C(C)C(O)C1)[C@H]2O (some centres not stated) = active
• O=NN(CCCl)C(=O)NC1CCC(CC2CCC(NC(=O)N(CCCl)N=O)CC2)CC1 (configuration not stated) = active
• C=CCNc1ccc(C)cc1 = inactive
• COc1cc2cc(C(=O)Nc3cc4n(n3)-c3ccccc3C4)[nH]c2c(OC)c1OC = inactive
• Cc1cccc2c1Oc1cc(Cl)ccc1C2NC(=O)CCN1CCOCC1 (configuration not stated) = inactive
• OCCCCCNc1c2ccccc2nc2ccccc12 = inactive
• Cc1cc([C@H](C#N)c2nc3ccccc3[nH]2)nc(Cl)n1 = inactive
• CCC1C2Cc3ccc(O)cc3C1(CC)CCN2C (configuration not stated) = inactive
• NP(=O)(OCC1=CC(=O)c2ccccc2C1=O)N(CCBr)CCBr (configuration not stated) = inactive
